Experiment: Cytotoxicity against human BJ cells after 72 hrs by MTT assay
Type: cell-based
Recorded CC50 at 72 h by entry

[
  {
    "COMPOUND": "OC[C@H]1O[C@@H](n2ccc3c(-c4cccs4)ncnc32)[C@H](O)[C@@H]1O",
    "CC50 at 72 h": "310 nM"
  },
  {
    "COMPOUND": "OC[C@H]1O[C@@H](n2cc(F)c3c(-c4ccc[nH]4)ncnc32)[C@H](O)[C@@H]1O",
    "CC50 at 72 h": "2990 nM"
  },
  {
    "COMPOUND": "OC[C@H]1O[C@@H](n2ccc3c(-c4cccc5c4Oc4ccccc4S5)ncnc32)[C@H](O)[C@@H]1O",
    "CC50 at 72 h": "> 50000 nM"
  },
  {
    "COMPOUND": "OC[C@H]1O[C@@H](n2cc(F)c3c(-c4c[nH]cn4)ncnc32)[C@H](O)[C@@H]1O",
    "CC50 at 72 h": "> 50000 nM"
  },
  {
    "COMPOUND": "OCc1ncnc2c1ccn2[C@@H]1O[C@H](CO)[C@@H](O)[C@H]1O",
    "CC50 at 72 h": "340 nM"
  },
  {
    "COMPOUND": "CCCCCCCCCCCCCCCCCCOP(=O)(O)OC[C@H]1O[C@@H](n2ccc3c(-c4ccccc4)ncnc32)[C@H](O)[C@@H]1O",
    "CC50 at 72 h": "> 50000 nM"
  },
  {
    "COMPOUND": "OC[C@H]1O[C@@H](n2ccc3c(-c4ccc(F)cc4)ncnc32)[C@H](O)[C@@H]1O",
    "CC50 at 72 h": "> 50000 nM"
  },
  {
    "COMPOUND": "COc1ccc(-c2ncnc3c2ccn3[C@@H]2O[C@H](CO)[C@@H](O)[C@H]2O)cc1",
    "CC50 at 72 h": "> 50000 nM"
  }
]
